Measured LogAUC, listed per entry for reference.
# MEASURED_TARGET: CH0505_CON D7gp120/293i
# ASSAY_TEXT: ELISA

CH241 (antibody, V domains shown) VH: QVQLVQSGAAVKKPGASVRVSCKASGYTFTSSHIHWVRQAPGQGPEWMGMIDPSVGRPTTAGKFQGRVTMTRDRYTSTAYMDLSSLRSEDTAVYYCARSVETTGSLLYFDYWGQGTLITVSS VL: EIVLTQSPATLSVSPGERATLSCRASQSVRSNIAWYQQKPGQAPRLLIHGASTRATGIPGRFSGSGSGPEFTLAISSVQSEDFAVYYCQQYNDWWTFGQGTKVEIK = 13.3

Now consider a different binder.
// lookup LogAUC for CH235.13 (antibody, V domains shown) VH: QVQLVQSGGGVKRPGSTTTISCVASGYSFNDYYIHWVRQAPGQGLEVLGFIDPSNGRTNYAGAFGDRFSMYRDKSMETLYMDLRNLRSDDTAMYYCVRNVGTAGSLLHYDHWGTGSKIIVSS VL: EIVLTQSPATLSASPGERVTLTCRASRGVRNNVAWYQHNVGQSPRLLIYDASTRAPGIPARFSGSASGTEFTLAISSIQSEDFTLYYCHQYNNWWTFGQGTRVDIN
6.23
